Target: MAGI2_5, Q86UL8
Sequence (Q86UL8 915-1017): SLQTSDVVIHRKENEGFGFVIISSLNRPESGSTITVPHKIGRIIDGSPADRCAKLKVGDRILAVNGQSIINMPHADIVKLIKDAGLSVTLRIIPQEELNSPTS
Experiment: holdup assay
Design: key: below the threshold = too weak to quantify, mostly under pKd 3.1 to 4
Details: plain residues with an end cap or a label only (N-terminal biotin on a linker: ado-ado)

{"columns": ["binder", "pKd"],
 "data": [
  ["IGHEDLETAV [DGKI, O75912]", 4.82],
  ["GQNMTVSVVI [PRLHR, P49683]", "below the threshold"],
  ["PSDSVGKDVF [EGLN1, Q9GZT9]", "below the threshold"],
  ["HYPASPDSWV [CTNND2, Q9UQB3]", "below the threshold"]
]}

Reference for the values: paper PMC9482650
